Recorded pIC50 by entry
System: actinic keratosis patient-derived cell HT 297.T
Test: Cell proliferation inhibition test, HT 297.T
Type: cell-based, Human
Conditions: Homo sapiens, 96 h; 4 days incubation
Method: Human cutaneous squamous cell carcinoma cell A-431 (ATCC, CRL-1555) and actinic keratosis patient-derived cell HT 297.T (ATCC, CRL-7782) proliferation assays were used to detect the inhibitory effect of small molecular compounds on cell proliferation. A-431 cells and HT 297.T cells were cultured in DMEM medium containing 10% fetal bovine serum and grown at 37°C in a 5% CO2 incubator. […]
On this scale, pIC50 is minus log10 of a concentration expressed in M (mol/L).

Form field, pIC50 with actinic keratosis patient-derived cell HT 297.T, item O=C(Cc1ccc(-c2ccc(OCCN3CCOCC3)cc2)cn1)NCc1ccccc1 [Control compound, Tirbanibulin, reference compound] : 7.07

Consider the additional compound presented here.
Form field, pIC50 with actinic keratosis patient-derived cell HT 297.T, item Cc1cc(OCCN2C[C@H]3COC[C@H]3C2)ccc1-c1ccc(CC(=O)NCc2ccccc2)nc1 [Compound of Formula I] : 7.38

###

test: Pharmacokinetic test in mice; assay type: in vivo; settings: mouse, plasma; male ICR mice, intravenous injection administration (1 mg/kg)
Recorded AUC(0-t) by entry
Kindly provide the numeric value in ng·h/mL only, without the unit symbol.

Form: compound = Cc1cc(OCCN2C[C@H]3COC[C@H]3C2)ccc1-c1ccc(CC(=O)NCc2ccccc2)nc1 ; AUC(0-t) = 430

Consider the additional compound presented here.
Form: compound = O=C(Cc1ccc(-c2ccc(OCCN3CCOCC3)cc2)cn1)NCc1ccccc1 [Control compound, Tirbanibulin, reference compound] ; AUC(0-t) = 525

###

experiment: Dynamic solubility experiment at 37°C (water, SGF, FaSSIF, FeSSIF); conditions: H2O, 4 hours, solid feed 10 mg/mL, 240 min
Counter-ions that a name gives are not always drawn.
Recorded S: solubility by entry
Kindly provide the numeric value in µg/mL only, without the unit symbol.

Form: compound = Cc1cc(OCCN2C[C@H]3COC[C@H]3C2)ccc1-c1ccc(CC(=O)NCc2ccccc2)nc1 [Free form crystal form A] ; S: solubility = 80

Form: compound = Cc1cc(OCCN2C[C@H]3COC[C@H]3C2)ccc1-c1ccc(CC(=O)NCc2ccccc2)nc1 [Crystal form A of benzenesulfonate salt] ; S: solubility = 8390

Form: compound = Cc1cc(OCCN2C[C@H]3COC[C@H]3C2)ccc1-c1ccc(CC(=O)NCc2ccccc2)nc1 [Crystal form A of fumarate salt] ; S: solubility = 9720

Form: compound = Cc1cc(OCCN2C[C@H]3COC[C@H]3C2)ccc1-c1ccc(CC(=O)NCc2ccccc2)nc1 [Crystal form A of phosphate salt] ; S: solubility = 9650

New cases:
Form: compound = Cc1cc(OCCN2C[C@H]3COC[C@H]3C2)ccc1-c1ccc(CC(=O)NCc2ccccc2)nc1 [Crystal form B of oxalate salt] ; S: solubility = 9650

###

assay: Dynamic solubility experiment at 37°C (water, SGF, FaSSIF, FeSSIF); conditions: pH value of the filtrate, FeSSIF, 1 hour
Structures can show the parent of a compound that is named as a salt.
MEASUREMENT_NAME: pH
Enter the number alone.

Form: compound = Cc1cc(OCCN2C[C@H]3COC[C@H]3C2)ccc1-c1ccc(CC(=O)NCc2ccccc2)nc1 [Crystal form A of benzenesulfonate salt] ; pH = 4.9

Form: compound = Cc1cc(OCCN2C[C@H]3COC[C@H]3C2)ccc1-c1ccc(CC(=O)NCc2ccccc2)nc1 [Crystal form A of phosphate salt] ; pH = 4.9

Form: compound = Cc1cc(OCCN2C[C@H]3COC[C@H]3C2)ccc1-c1ccc(CC(=O)NCc2ccccc2)nc1 [Free form crystal form A] ; pH = 5.3

Form: compound = Cc1cc(OCCN2C[C@H]3COC[C@H]3C2)ccc1-c1ccc(CC(=O)NCc2ccccc2)nc1 [Crystal form A of fumarate salt] ; pH = 4.6

Form: compound = Cc1cc(OCCN2C[C@H]3COC[C@H]3C2)ccc1-c1ccc(CC(=O)NCc2ccccc2)nc1 [Crystal form B of oxalate salt] ; pH = 4.7
